# Substrate: N[C@@H](CC(=O)O)C(=O)O
# Method Description: purified protein
# Run Conditions: co-substrate α-ketoglutarate (fixed, 0.1563–1.25 mM range), 16 µM PLP, 5 mM NAD+, 100 mM potassium phosphate pH 8, 37 °C
Measured Endpoint: Km (µM)
Express the result in µM but write the number alone.

E. coli aspartate aminotransferase (AAT) (Escherichia coli K-12; K37F/N64S/T43C) (protein, full-length, N-terminal His-tag, expressed in E. coli BL21-Gold (DE3), Ni-NTA purified; 90 kDa homodimer, PLP-dependent) MFENITAAPADPILGLADLFRADERPGKINLGIGVYFDETGKCPVLTSVKKAEQYLLENETTKSYLGIDGIPEFGRCTQELLFGKGSALINDKRARTAQTPGGTGALRVAADFLAKNTSVKRVWVSNPSWPNHKSVFNSAGLEVREYAYYDAENHTLDFDALINSLNEAQAGDVVLFHGCCHNPTGIDPTLEQWQTLAQLSVEKGWLPLFDFAYQGFARGLEEDAEGLRAFAAMHKELIVASSYSKNFGLYNERVGACTLVAADSETVDRAFSQMKAAIRANYSNPPAHGASVVATILSNDALRAIWEQELTDMRQRIQRMRQLFVNTLQEKGANRDFSFIIKQNGMFSFSGLTKEQVLRLREEFGVYAVASGRVNVAGMTPDNMAPLCEAIVAVL; 68
E. coli aspartate aminotransferase (AAT) (Escherichia coli K-12) (protein, full-length, N-terminal His-tag, expressed in E. coli BL21-Gold (DE3), Ni-NTA purified; 90 kDa homodimer, PLP-dependent) MFENITAAPADPILGLADLFRADERPGKINLGIGVYKDETGKTPVLTSVKKAEQYLLENETTKNYLGIDGIPEFGRCTQELLFGKGSALINDKRARTAQTPGGTGALRVAADFLAKNTSVKRVWVSNPSWPNHKSVFNSAGLEVREYAYYDAENHTLDFDALINSLNEAQAGDVVLFHGCCHNPTGIDPTLEQWQTLAQLSVEKGWLPLFDFAYQGFARGLEEDAEGLRAFAAMHKELIVASSYSKNFGLYNERVGACTLVAADSETVDRAFSQMKAAIRANYSNPPAHGASVVATILSNDALRAIWEQELTDMRQRIQRMRQLFVNTLQEKGANRDFSFIIKQNGMFSFSGLTKEQVLRLREEFGVYAVASGRVNVAGMTPDNMAPLCEAIVAVL; 210
E. coli aspartate aminotransferase (AAT) (Escherichia coli K-12; K37I/N64S/T43F/V35A) (protein, full-length, N-terminal His-tag, expressed in E. coli BL21-Gold (DE3), Ni-NTA purified; 90 kDa homodimer, PLP-dependent) MFENITAAPADPILGLADLFRADERPGKINLGIGAYIDETGKFPVLTSVKKAEQYLLENETTKSYLGIDGIPEFGRCTQELLFGKGSALINDKRARTAQTPGGTGALRVAADFLAKNTSVKRVWVSNPSWPNHKSVFNSAGLEVREYAYYDAENHTLDFDALINSLNEAQAGDVVLFHGCCHNPTGIDPTLEQWQTLAQLSVEKGWLPLFDFAYQGFARGLEEDAEGLRAFAAMHKELIVASSYSKNFGLYNERVGACTLVAADSETVDRAFSQMKAAIRANYSNPPAHGASVVATILSNDALRAIWEQELTDMRQRIQRMRQLFVNTLQEKGANRDFSFIIKQNGMFSFSGLTKEQVLRLREEFGVYAVASGRVNVAGMTPDNMAPLCEAIVAVL; 320

Continue with the protein presented below.
For the protein shown here, E. coli aspartate aminotransferase (AAT) (Escherichia coli K-12; K37F/N64T/T43I) (protein, full-length, N-terminal His-tag, expressed in E. coli BL21-Gold (DE3), Ni-NTA purified; 90 kDa homodimer, PLP-dependent) MFENITAAPADPILGLADLFRADERPGKINLGIGVYFDETGKIPVLTSVKKAEQYLLENETTKTYLGIDGIPEFGRCTQELLFGKGSALINDKRARTAQTPGGTGALRVAADFLAKNTSVKRVWVSNPSWPNHKSVFNSAGLEVREYAYYDAENHTLDFDALINSLNEAQAGDVVLFHGCCHNPTGIDPTLEQWQTLAQLSVEKGWLPLFDFAYQGFARGLEEDAEGLRAFAAMHKELIVASSYSKNFGLYNERVGACTLVAADSETVDRAFSQMKAAIRANYSNPPAHGASVVATILSNDALRAIWEQELTDMRQRIQRMRQLFVNTLQEKGANRDFSFIIKQNGMFSFSGLTKEQVLRLREEFGVYAVASGRVNVAGMTPDNMAPLCEAIVAVL , give the reported Km.
27
